target: T1, recombinant human IGF-II (Insulin-like Growth Factor II) (human, UniProt P01344 25-91, biotinylated (Biotinyl-IGF-II, GroPep) where immobilised in SPR, site not stated; not biotinylated in ITC and as SPR analyte); test: SPR, IGF-II immobilised, steady state
T1 construct: also called IGF2; IGF-2
T1 sequence (P01344 25-91 limits assumed): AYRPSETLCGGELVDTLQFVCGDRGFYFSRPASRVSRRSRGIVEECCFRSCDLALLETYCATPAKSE
pKd: −log10 of the molar value.
Rule: yes (1) for pKd not less than 7, no (0) for anything less.

Q) Test whether the binder IGF2R domain 11 T1570A (amino acids 1511-1650, C-terminal His6 tag, from Pichia pastoris) (receptor) NEHDDCQVTNPSTGHLFDLSSLSGRAGFTAAYSEKGLVYMSICGENENCPPGVGACFGQARISVGKANKRLRYVDQVLQLVYKDGSPCPSKSGLSYKSVISFVCRPEAGPTNRPMLISLDKQTCTLFFSWHTPLACEQATHHHHHH records pKd of 7 or higher.
A) no (0)

Q) Test whether the binder IGF2R domain 11 E1544A (amino acids 1511-1650, C-terminal His6 tag, from Pichia pastoris) (receptor) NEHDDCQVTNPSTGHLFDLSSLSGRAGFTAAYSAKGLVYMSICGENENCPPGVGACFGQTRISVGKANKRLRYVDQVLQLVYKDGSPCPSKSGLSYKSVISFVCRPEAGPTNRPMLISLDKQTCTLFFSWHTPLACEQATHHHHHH records pKd of 7 or higher.
A) yes (1)

Q) Test whether the binder IGF2R domain 11 K1545A (amino acids 1511-1650, C-terminal His6 tag, from Pichia pastoris) (receptor) NEHDDCQVTNPSTGHLFDLSSLSGRAGFTAAYSEAGLVYMSICGENENCPPGVGACFGQTRISVGKANKRLRYVDQVLQLVYKDGSPCPSKSGLSYKSVISFVCRPEAGPTNRPMLISLDKQTCTLFFSWHTPLACEQATHHHHHH records pKd of 7 or higher.
A) no (0)

Q) Test whether the binder IGF2R domain 11 Y1542A (amino acids 1511-1650, C-terminal His6 tag, from Pichia pastoris) (receptor) NEHDDCQVTNPSTGHLFDLSSLSGRAGFTAAASEKGLVYMSICGENENCPPGVGACFGQTRISVGKANKRLRYVDQVLQLVYKDGSPCPSKSGLSYKSVISFVCRPEAGPTNRPMLISLDKQTCTLFFSWHTPLACEQATHHHHHH records pKd of 7 or higher.
A) no (0)

Where do these numbers come from? They come from patent US20090304651A1.
